# Study Target: recombinant IRAK-4 kinase (Homo sapiens)
# Test Description: IRAK-4 biochemical assay (TR-FRET)
# Condition: IRAK-4 enzyme, dose response, 20 μM ATP
# Procedure: Compounds were tested for their potential to inhibit IRAK-4 enzyme in a TR-FRET assay using recombinant IRAK-4 kinase from Millipore, USA. The assay buffer was 50 mM Tris-HCl pH 7.5, 20 mM MgCl2, 1 mM EGTA, 2 mM DTT, 3 mM MnCl2 and 0.01% Tween 20.5 ng of IRAK-4 kinase was used for the assay. […] The fluorescence emission at 615 nm and 665 nm were measured at an excitation of 340 nm and the percent inhibition was estimated from the ratio of the fluorescence intensities [(F665/F615)×10000]. […]
Counter-ions that a name gives are not always drawn.
Assay Readout: IC50

// Input: Cc1cc(-c2nc(C(=O)Nc3cc4c(cnn4C)cc3N3CCCC(O)C3)co2)ccn1 (stereo not shown) [Example 12, hydrochloride] . Output its IC50 only.
< 0.1 µM

Give IC50 for the following compound: CCn1ncc2cc(N3CC[C@H](O)C3)c(NC(=O)c3coc(-c4ccnc(C)c4)n3)cc21 [Example 32, hydrochloride]
< 0.1 µM

In one line, give reported IC50 of the entry "Cc1cc(-c2nc(C(=O)Nc3cc4c(cnn4C)cc3N3CCC(CO)CC3)co2)ccn1" .
< 0.1 µM

Next:
Consider the compound Cc1cc(-c2nc(C(=O)Nc3cc4c(cnn4C)cc3N3CC[C@H](O)C3)co2)ccn1 [Example 11, hydrochloride] and give its recorded IC50.
< 0.1 µM

Indicate the recorded IC50 value for this compound: "Cn1ncc2cc(N3CCCCC3)c(NC(=O)c3cccc(N4CC[C@H](N)C4)n3)cc21"
> 0.25 µM

Hello, please tell me recorded IC50 for this one: "Cn1cc2cc(N3CCCCC3)c(NC(=O)c3coc(N4CC[C@H](N)C4)n3)cc2n1"
> 0.25 µM

Supply recorded IC50 for "Cn1ncc2cc(N3CC[C@@H](O)C3)c(NC(=O)c3cccc(N4CC[C@H](O)C4)n3)cc21" here.
0.1 to 0.25 µM

Output IC50 of "Cc1cc(-c2nc(C(=O)Nc3cc4c(cnn4C)cc3N3CCC(F)CC3)co2)ccn1"
< 0.1 µM

----------
# Study Target: recombinant IRAK-4 kinase (Homo sapiens)
# Construct: purchased Millipore, USA
# Test Description: IRAK-4 biochemical assay (TR-FRET)
# Condition: IRAK-4 enzyme, compound at 1 μM, 20 μM ATP
# Method: Compounds were tested for their potential to inhibit IRAK-4 enzyme in a TR-FRET assay using recombinant IRAK-4 kinase from Millipore, USA. The assay buffer was 50 mM Tris-HCl pH 7.5, 20 mM MgCl2, 1 mM EGTA, 2 mM DTT, 3 mM MnCl2 and 0.01% Tween 20.5 ng of IRAK-4 kinase was used for the assay. […] The fluorescence emission at 615 nm and 665 nm were measured at an excitation of 340 nm and the percent inhibition was estimated from the ratio of the fluorescence intensities [(F665/F615)×10000]. […]
Structures can show the parent of a compound that is named as a salt.
Assay Readout: inhibition at 1 µM (%)

Record excerpt, results attached:
Hello, please tell me recorded inhibition at 1 µM for this one: "Cc1cc(-c2ncc(C(=O)Nc3cc4c(cnn4C)cc3N3CC[C@H](O)C3)o2)ccn1"
92

Supply inhibition at 1 µM value. Item: Cc1cc(-c2nc(C(=O)Nc3cc4c(cnn4C)cc3N3C4CCC3CC(O)C4)co2)ccn1 (stereo not shown)
77

I: Cn1ncc2cc(N3CC[C@H](O)C3)c(NC(=O)c3coc(N4CCNCC4)n3)cc21 [Example 31, hydrochloride]
II: Cn1cc2cc(N3CCCCC3)c(NC(=O)c3coc(N4CC[C@H](O)C4)n3)cc2n1
Hi team, can someone confirm which has the larger inhibition at 1 µM: I or II ? Thanks. Field: selected label. Fill in the label of the entry you choose.
II
(II: 90%, I: 37%)

----------
# Study Target: recombinant IRAK-4 kinase (Homo sapiens, UniProt Q9NWZ3)
# Construct: purchased Millipore, USA
# Sequence (Q9NWZ3 whole entry): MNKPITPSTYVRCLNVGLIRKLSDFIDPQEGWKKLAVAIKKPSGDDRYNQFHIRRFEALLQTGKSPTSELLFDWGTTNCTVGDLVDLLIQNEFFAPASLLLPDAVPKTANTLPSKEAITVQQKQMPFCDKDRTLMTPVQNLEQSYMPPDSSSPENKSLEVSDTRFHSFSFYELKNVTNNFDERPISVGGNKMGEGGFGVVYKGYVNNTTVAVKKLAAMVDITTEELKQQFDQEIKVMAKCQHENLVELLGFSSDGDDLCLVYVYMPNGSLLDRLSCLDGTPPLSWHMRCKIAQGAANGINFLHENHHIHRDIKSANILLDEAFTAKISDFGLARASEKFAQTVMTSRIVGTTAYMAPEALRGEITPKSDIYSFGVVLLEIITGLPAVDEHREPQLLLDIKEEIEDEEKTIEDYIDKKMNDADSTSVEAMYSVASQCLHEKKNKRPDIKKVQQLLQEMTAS
# Test Description: IRAK-4 biochemical assay (TR-FRET)
# Condition: IRAK-4 enzyme, compound at 0.1 μM, 20 μM ATP
Counter-ions that a name gives are not always drawn.
Assay Readout: inhibition at 0.1 µM (%)

Find the measured inhibition at 0.1 µM of Cn1ncc2cc(N3CC[C@H](O)C3)c(NC(=O)c3coc(-c4ccnc(N)c4F)n3)cc21 [Example 28] with recombinant IRAK-4 kinase (Homo sapiens, UniProt Q9NWZ3) as test system.
96

Tell me its inhibition at 0.1 µM on recombinant IRAK-4 kinase (Homo sapiens, UniProt Q9NWZ3): Cc1cc(-c2nc(C(=O)Nc3cc4[nH]ncc4cc3N3CC[C@H](O)C3)co2)ccn1 [Example 27]
88

1: Cn1cc2cc(N3CCCCC3)c(NC(=O)c3cccc(N4CC[C@H](N)C4)n3)cc2n1 [Example 7]
2: Cn1ncc2cc(N3CC[C@@H](O)C3)c(NC(=O)c3coc(-c4cccnc4N)n3)cc21 [Example 29, hydrochloride]
Just tell me: smaller inhibition at 0.1 µM value, 1 or 2 ? API: response body contains the label of the selected item.
2
(2: 14%, 1: 93%)

----------
# Study Target: recombinant IRAK-4 kinase (Homo sapiens)
# Construct: purchased Millipore, USA
# Test Description: IRAK-4 biochemical assay (TR-FRET)
# Condition: IRAK-4 enzyme, compound at 0.1 μM, 20 μM ATP
Where a name gives a salt, the structure may show the parent alone.
Assay Readout: inhibition at 0.1 µM (%)

a: Cn1ncc2cc(N3CC[C@H](O)C3)c(NC(=O)c3coc(C4CCNCC4)n3)cc21 [Example 37, hydrochloride]
b: Cc1cc(-c2nc(C(=O)Nc3cc4c(cc3N3CCC(CO)CC3)c(C)nn4C)co2)ccn1 [Example 45, hydrochloride]
c: Cn1cc2cc(N3CCC(O)CC3)c(NC(=O)c3cnn4cccnc34)cc2n1 [Example 47, hydrochloride]
Would you mind ranking these compounds by ascending inhibition at 0.1 µM? # respond with the labels, arranged in the requested order
a, b, c

----------
# Study Target: recombinant IRAK-4 kinase (Homo sapiens, UniProt Q9NWZ3)
# Test Description: IRAK-4 biochemical assay (TR-FRET)
# Condition: IRAK-4 enzyme, dose response, 20 μM ATP
Counter-ions that a name gives are not always drawn.
Assay Readout: IC50

# return recorded IC50 for entry Cc1cc(-c2nc(C(=O)Nc3cc4c(cnn4C4CC4)cc3N3CC[C@H](O)C3)co2)ccn1 [Example 33, hydrochloride]
100 to 250 nM

// fetch IC50 given entry Cc1cc(-c2nc(C(=O)Nc3cc4nn(C)cc4cc3N3CCCC(F)C3)co2)ccn1 (stereo not shown)
< 100 nM

Specify measured IC50 for "Cn1ncc2cc(N3CC[C@H](O)C3)c(NC(=O)c3coc(-c4ccnc(N)c4)n3)cc21" .
< 100 nM

For "Cn1cc2cc(N3CCCCC3)c(NC(=O)c3coc(N4CC[C@H](O)C4)n3)cc2n1" , write its IC50.
100 to 250 nM

----------
# Study Target: recombinant IRAK-4 kinase (Homo sapiens)
# Construct: purchased Millipore, USA
# Test Description: IRAK-4 biochemical assay (TR-FRET)
# Condition: IRAK-4 enzyme, compound at 1 μM, 20 μM ATP
Where a name gives a salt, the structure may show the parent alone.
Assay Readout: inhibition at 1 µM (%)

These recorded examples may help you get a feel for the data.
Note inhibition at 1 µM for the compound shown: "Cc1cc(-c2nc(C(=O)Nc3cc4[nH]ncc4cc3N3CC[C@H](O)C3)co2)ccn1"
97

For the compound "Cn1cc2cc(N3CCCCC3)c(NC(=O)c3cccc(N4CC[C@H](O)C4)n3)cc2n1" , give its measured inhibition at 1 µM value.
73

Tell us which inhibition at 1 µM value is on record for "Cc1cc(-c2nc(C(=O)Nc3cc4c(cnn4C)cc3N3CCC(CO)CC3)co2)ccn1"
97

A: Cn1ncc2cc(N3CC[C@H](O)C3)c(NC(=O)c3coc(C4CCNCC4)n3)cc21 [Example 37, hydrochloride]
B: Cc1cc(-c2nc(C(=O)Nc3cc4c(cnn4C)cc3N3CCC(F)CC3)co2)ccn1
C: Cn1ncc2cc(N3CCCCC3)c(NC(=O)c3cccc(N4CC[C@H](N)C4)n3)cc21
D: Cc1cc(-c2nc(C)c(C(=O)Nc3cc4c(cnn4C)cc3N3CC[C@H](O)C3)o2)ccn1 [Example 36, hydrochloride]
E: Cc1nn(C)c2cc(NC(=O)c3coc(-c4ccnc(N)c4)n3)c(N3CCC(CO)CC3)cc12 [Example 43, hydrochloride]
Sort entries by inhibition at 1 µM from minimum to maximum value. Reply with the item labels sorted in the order that was asked for.
A, D, E, C, B

P: Cc1cc(-c2nc(C(=O)Nc3cc4nn(C)cc4cc3N3CCCC(F)C3)co2)ccn1 (stereo not drawn)
Q: Cc1cc(-c2nc(C(=O)Nc3cc4c(cnn4CC4CCNCC4)cc3N3CC[C@H](O)C3)co2)ccn1 [Example 44, hydrochloride]
Just tell me: smaller inhibition at 1 µM value, P or Q ? Refer to your chosen item by its label in the answer.
Q
(Q: 54%, P: 96%)

P: Cn1cc2cc(N3CCCCC3)c(NC(=O)c3coc(N4CC[C@H](N)C4)n3)cc2n1
Q: Cc1cc(-c2nc(C(=O)Nc3cc4c(cc3N3CCC(CO)CC3)c(C)nn4C)co2)ccn1 [Example 45, hydrochloride]
Please compare: P and Q . Report which one has the smaller inhibition at 1 µM value. Refer to your chosen item by its label in the answer.
Q

A: CCn1ncc2cc(N3CC[C@H](O)C3)c(NC(=O)c3coc(-c4ccnc(C)c4)n3)cc21 [Example 32, hydrochloride]
B: CN1CCN(c2nc(C(=O)Nc3cc4c(cnn4C)cc3N3CC[C@H](O)C3)co2)CC1 [Example 30, hydrochloride]
So which one has the bigger inhibition at 1 µM here, A or B ? Which one? Tell me its label.
A
